From: the RNAGym collection of RNA variant scans (doi:10.1073/pnas.2313332121)

# polymerase ribozyme fitness (log ratio) listing for each entry below
B1: TPR 5TU (parent)
chain: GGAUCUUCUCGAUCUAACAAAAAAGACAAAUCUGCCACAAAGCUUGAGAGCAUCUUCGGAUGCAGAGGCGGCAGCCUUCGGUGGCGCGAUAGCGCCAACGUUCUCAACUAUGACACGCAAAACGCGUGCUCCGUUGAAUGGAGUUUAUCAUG

variants of: B1; assay: polymerase ribozyme fitness, log enrichment relative to wild type (log ratio); higher = more active; in vitro selection for triplet polymerase activity
Fewer inactive variants are shown than the library holds.
Give only the figure.

Examples with their reported polymerase ribozyme fitness (log ratio) follow.
| Variant Identifier | polymerase ribozyme fitness (log ratio) |
| --- | --- |
| A40C U90C | -4.09 |
| C95U C99A | -0.15 |
| C38U | 0.0316 |
| U146C A150U | 0.851 |
| U6G C8G C18U C54U C131U | -3.56 |
| U4C A49U G94A A106G C123U | -1.94 |

Could you now consider this next variant?
Lab book: polymerase ribozyme fitness (log ratio) of C54U U56A G133C noted as -1.7
